# normalized RNA/DNA level with ligand (log10) values compiled below
B1: library; a variant is named by its letters at N, in order (parent)
chain: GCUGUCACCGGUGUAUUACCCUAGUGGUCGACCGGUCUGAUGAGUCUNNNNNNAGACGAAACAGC

Variants of: B1
assay-notes: normalized RNA/DNA level with ligand (relative to sTRSVctl = 100) (log10 (% of sTRSVctl)); ligand: hypoxanthine (xanthine aptamer); higher = less ribozyme self-cleavage, higher mRNA level
stated-conditions: ligand concentration (+) RNA-Seq: 5 mM, HEK293T, reporter: mCherry (pCS4076), ligand present: yes

For orientation, consider the following solved cases.
{"residue-sequence": "GCUGUCACCGGUGUAUUACCCUAGUGGUCGACCGGUCUGAUGAGUCUAAUCUCAGACGAAACAGC [AAUCUC]", "value-observed": 2}
{"residue-sequence": "GCUGUCACCGGUGUAUUACCCUAGUGGUCGACCGGUCUGAUGAGUCUUGACGUAGACGAAACAGC [UGACGU]", "value-observed": 1.91}
{"residue-sequence": "GCUGUCACCGGUGUAUUACCCUAGUGGUCGACCGGUCUGAUGAGUCUCACCACAGACGAAACAGC [CACCAC]", "value-observed": 1.92}
{"residue-sequence": "GCUGUCACCGGUGUAUUACCCUAGUGGUCGACCGGUCUGAUGAGUCUGAGUGUAGACGAAACAGC [GAGUGU]", "value-observed": 1.86}
{"residue-sequence": "GCUGUCACCGGUGUAUUACCCUAGUGGUCGACCGGUCUGAUGAGUCUCGACGAAGACGAAACAGC [CGACGA]", "value-observed": 1.93}
{"residue-sequence": "GCUGUCACCGGUGUAUUACCCUAGUGGUCGACCGGUCUGAUGAGUCUCCUACUAGACGAAACAGC [CCUACU]", "value-observed": 1.98}
{"residue-sequence": "GCUGUCACCGGUGUAUUACCCUAGUGGUCGACCGGUCUGAUGAGUCUAGUGUUAGACGAAACAGC [AGUGUU]", "value-observed": 1.96}
{"residue-sequence": "GCUGUCACCGGUGUAUUACCCUAGUGGUCGACCGGUCUGAUGAGUCUCGCGUUAGACGAAACAGC [CGCGUU]", "value-observed": 1.99}

Now look at this entry.
QUERY: Please look up its normalized RNA/DNA level with ligand (log10): GCUGUCACCGGUGUAUUACCCUAGUGGUCGACCGGUCUGAUGAGUCUGUCCUUAGACGAAACAGC [GUCCUU]
RESULT: 1.94
